Target under test: SIRT1 (Homo sapiens)
Sequence (Q96EB6 whole entry): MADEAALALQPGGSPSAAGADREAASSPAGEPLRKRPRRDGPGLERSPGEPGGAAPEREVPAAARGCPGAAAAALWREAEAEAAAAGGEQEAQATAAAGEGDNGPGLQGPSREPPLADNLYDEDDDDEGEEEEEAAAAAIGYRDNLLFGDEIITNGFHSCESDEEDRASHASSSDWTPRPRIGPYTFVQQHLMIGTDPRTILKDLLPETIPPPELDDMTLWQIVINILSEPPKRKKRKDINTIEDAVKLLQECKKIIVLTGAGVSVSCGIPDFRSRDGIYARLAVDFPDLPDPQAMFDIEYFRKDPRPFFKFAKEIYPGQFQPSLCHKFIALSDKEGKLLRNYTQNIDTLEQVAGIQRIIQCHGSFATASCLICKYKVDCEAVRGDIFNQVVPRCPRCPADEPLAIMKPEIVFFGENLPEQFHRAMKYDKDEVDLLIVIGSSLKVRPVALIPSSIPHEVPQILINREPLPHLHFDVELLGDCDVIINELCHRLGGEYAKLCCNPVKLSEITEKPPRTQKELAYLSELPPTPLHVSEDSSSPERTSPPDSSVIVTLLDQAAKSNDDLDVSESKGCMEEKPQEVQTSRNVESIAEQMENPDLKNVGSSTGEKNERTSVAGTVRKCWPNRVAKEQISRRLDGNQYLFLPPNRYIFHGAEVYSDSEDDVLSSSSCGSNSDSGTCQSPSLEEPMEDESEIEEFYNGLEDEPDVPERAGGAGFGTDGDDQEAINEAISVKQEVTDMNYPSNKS
Assay text: SIRT1 enzyme activity test (deacetylase inhibition)
Assay type: biochemical
Conditions: Table 3, SITR1 [sic]; 1 μM SIRT1, 500 μM NAD+, 10 μM substrate peptide; read-out: Inhibition of SIRT1 deacylation (IC50)
Metric: IC50 (nM)

• O=C1OC(c2ccccc2)OC(=O)C1=Cc1cc(Cl)c(O)c(Cl)c1 (stereo not drawn) = 1200

(P) COc1cc(C=C2C(=O)OC(c3ccccc3)OC2=O)cc(I)c1O (stereo not drawn)
(Q) COc1cc(C=C2C(=O)OC(c3ccccc3)OC2=O)cc(Cl)c1O (stereo not drawn)
Between P and Q , whose recorded IC50 is greater? Selection: enter the item's label. Q
(Q: 1900 nM, P: 890 nM)
